% Inhibition of JEG-3 cell invasion, 50 µg/ml (further test) overview
# target desc: T1, MMP-26 (human)
# T1 sequence: ASDF
# procedure details: cell-based or functional assay
Write the number in % without appending the unit.

C08 (antibody, human IgG4, V domains shown) VH: EVQLLESGGGLVQPGGSLRLSCAASGFTFSYYEMMWVRQAPGKGLEWVSSISPSGGPTMYADSVKGRFTISRDNSKNTLYLQMNSLRAEDTGVYYCARKMGRVGYCSSTSCYRDDYYGMDVWGQGTTVTVSS VL: DIQMTQSPPSLSALVGDRVTITCRASQSISRYVNWYQQKPGKAPKVLIYAASIVENGVPSRFSGSGSGTDFSLTISSLQPEDFATYYCQQTYSTPLTFGGGTKLAIKR; 62

Pending binder:
// Input: D08 (antibody, human IgG4, V domains shown) VH: EVQLLESGGGLVQPGGSLRLSCAASGFTFSFYAMWWVRQAPGKGLEWVSRIYSSGGKTWYADSVKGRFTISRDNSKNTLYLQMNSLRAEDTAVYYCARVGMSTYAFDIWGQGTMVTVSS VL: DIQMTQSPSSLSASVGDRVTITCRASQSISDYLNWYQQKPGKAPDLLIYAASSLQSGVPSRFSGSGSGTDFTLTVSSLQPEDFATYFCQQSYSIPLTFGGGTKVEITR . Output its % Inhibition of JEG-3 cell invasion, 50 µg/ml (further test) only. 53
